Data provenance: ChEMBL document CHEMBL1156194

Assay: Blood clearance in po dosed rat
Assay type: ADME, organism-based
Settings: whole blood
readout label: CL/F

**Query** Param item = CN(C)Cc1ccc(-c2cc3c(-c4cnn(C)c4)ccnc3[nH]2)cc1 ; retrieve measured CL/F.
**Result** 86 mL/min/kg

----------
Tested on: A549
Experiment: Cell cycle arrest in human A549 cells assessed as 2N to 4N DNA accumulation at 5 times EC50 after 48 hrs by FACS analysis relative to control relative to control
Assay type: functional
readout label: Activity (%)
Write the answer as a number in %, unit excluded.

Example compounds with recorded Activity:
CCn1cc(-c2ccnc3[nH]c(-c4cccc(CN(C)C)c4)cc23)c(-c2ccc(NC(=O)N(C)C)cc2)n1 = 3
CN(C)Cc1ccc(-c2cc3c(-c4cnn(C)c4)ccnc3[nH]2)cc1 = 7
CN(C)Cc1ccc(-c2cc3c(-c4cnn(C)c4)c(Cl)cnc3[nH]2)cc1 = 5

**Query** Param item = CN(C)Cc1cccc(-c2cc3c(-c4cnn(C)c4)ccnc3[nH]2)c1 ; retrieve measured Activity.
**Result** 4

**Query** Param item = CN(C)Cc1cccc(-c2cc3c(-c4cnn(C)c4)c(Cl)cnc3[nH]2)c1 ; retrieve measured Activity.
**Result** 4
